# Method Notes: IANBD-channel fluorescence artefacts in buffer – biochemical, artefact control for cardiac RTF calcium sensitizer project, confirmation (AID 504382)
# Experimental Conditions: IANBD fluorescence interference counterscreen, EC20 Ca2+, at 7.2 µM, stronger effect = higher value, scaled: EC20 calcium 0, EC100 calcium 100
Among all 2,500 compounds or so, about 460 (18%) were called active. Only a sample is shown.
Readout Kind: fluorescence artifact activation

Molecule	Readout Kind	Recorded Measurement
O=C(O)CSc1ncnc2scc(-c3ccc(Br)cc3)c12	fluorescence artifact activation	0.71% (inactive)
Cc1ccc2c(c1)[C@H]1[C@H](CO2)[C@H](c2ccccc2)[C@]2(C)C(=O)N(Cc3ccc(F)cc3)CC(=O)N12	fluorescence artifact activation	0.19% (inactive)
CN(C)c1ccc(NC2=C([N+](=O)[O-])CS(=O)(=O)C2)cc1	fluorescence artifact activation	3.15% (inactive)
CC(=O)Nc1ccc(N2C(=O)CSC2c2ccc(F)cc2)cc1 (centres undefined)	fluorescence artifact activation	47.7% (active)
Cc1ccc(Cl)c2c(N=Nc3ccccc3)c(O)[nH]c12	fluorescence artifact activation	0.17% (inactive)
CCCCCn1nc(-c2ccccc2)c2nc3ccccc3nc21	fluorescence artifact activation	20.1% (active)
CCc1ccc(/C=C2\Oc3c(ccc(O)c3CN3CCN(C)CC3)C2=O)cc1	fluorescence artifact activation	-0.01% (inactive)
CCC(CC)NC(=O)Nc1ccccc1C	fluorescence artifact activation	0.09% (inactive)
CCCCN(C(=O)c1ccc2c(c1)OCCO2)c1c(N)n(CCCC)c(=O)[nH]c1=O	fluorescence artifact activation	-0.02% (inactive)
O=C(Nc1ccccc1)C1=C[C@H](c2ccc3c(c2)OCO3)C[C@H](OCCCCO)O1	fluorescence artifact activation	1.74% (inactive)
COc1ccc(C(=O)c2sc3nc(C)cc(-c4cccs4)c3c2N)cc1OC	fluorescence artifact activation	0.66% (inactive)
COc1ccc(C2C(C(C)=O)=C(C)N=c3s/c(=C\c4cc(C)n(C)c4C)c(=O)n32)c(OC)c1 (centres undefined)	fluorescence artifact activation	4.81% (inactive)
CC(Sc1nnc(NCc2ccccc2)s1)C(=O)Nc1ccc2c(c1)C(=O)c1ccccc1C2=O (centres undefined)	fluorescence artifact activation	49% (active)
O=C(Cc1ccccc1Cl)Nc1cccnc1	fluorescence artifact activation	1.8% (inactive)
CCn1nc(-c2ccccc2)c2nc3ccccc3nc21	fluorescence artifact activation	4.1% (inactive)
CC(=O)Nc1sc(/C(C#N)=C/c2ccc(Cl)c(Cl)c2)nc1-c1ccc(C)cc1	fluorescence artifact activation	-0.03% (inactive)
Cc1ccc(O)c(C(=O)c2cc(C#N)c(=O)n(-c3nccs3)c2)c1	fluorescence artifact activation	0.06% (inactive)
O=C(O)C(c1ccccc1)N1C(=O)/C(=C\c2ccc(-c3ccc(Br)cc3)o2)SC1=S (centres undefined)	fluorescence artifact activation	68.3% (active)
O=C(C1CCN(Cc2ccc(OCc3ccccc3)cc2)CC1)N1CCCC1	fluorescence artifact activation	0.13% (inactive)
CCNC(=O)COc1ccc(-c2ccccc2)cc1	fluorescence artifact activation	0.09% (inactive)
CCN1/C(=C/C=C/c2oc3ccc(-c4ccccc4)cc3[n+]2CC)Oc2ccc(-c3ccccc3)cc21	fluorescence artifact activation	-0.02% (inactive)
CN1CCN(CCOc2ccc(Cc3ccccc3)cc2)CC1	fluorescence artifact activation	0.23% (inactive)
COc1ccc(/C=c2\s/c(=C/C(=O)c3ccc(C)cc3)[nH]c2=O)c(OC)c1	fluorescence artifact activation	0.16% (inactive)
O=C(c1ccc(Cl)cc1)n1cnc2ccccc21	fluorescence artifact activation	0.21% (inactive)
O=C(Cn1cnc2ccccc2c1=O)c1ccc(Br)cc1	fluorescence artifact activation	102% (active)
CC(C)(ONC(=O)Nc1ccccc1Cl)C(=O)O	fluorescence artifact activation	314% (active)
COC(=O)c1ccc(NC(=O)c2cccc(OC)c2)cc1	fluorescence artifact activation	0.1% (inactive)
COc1ccc2c(Cl)c(C(=O)N/N=C3\CCCC(=O)C3)sc2c1	fluorescence artifact activation	16.2% (active)
Cc1ccc(NC(=S)Nc2ccc3nc(-c4ccccn4)c(-c4ccccn4)nc3c2)cc1C	fluorescence artifact activation	0% (inactive)
Brc1ccc(-c2noc(-c3ccccn3)n2)o1	fluorescence artifact activation	0.61% (inactive)
O=C(O)CN1C(=O)/C(=C/c2ccc(SCc3ccccc3)o2)SC1=S	fluorescence artifact activation	11.5% (inactive)
O=C(CSc1nc2ccccc2s1)NNC(=S)Nc1ccccc1	fluorescence artifact activation	193% (active)
N#Cc1cc(C(=O)c2cc(F)ccc2O)cn(-c2nccs2)c1=O	fluorescence artifact activation	0.01% (inactive)
COc1ccc(C(=O)Cn2cnc3ccccc3c2=O)cc1OC	fluorescence artifact activation	0.22% (inactive)
Cc1cc(Cn2nc(C(=O)NCC3CC3)cc2-c2ccccc2)on1	fluorescence artifact activation	0.04% (inactive)
Cn1nc(-c2ccccc2)c2nc3ccccc3nc21	fluorescence artifact activation	0.09% (inactive)
O=C(/C=C/c1nc2ccccc2s1)N1CCCCCC1	fluorescence artifact activation	7.06% (inactive)
C=CCn1c(=O)/c(=C/c2cc(OC)c(OC)c(OC)c2)s/c1=C(/C#N)c1nc2ccccc2n1C	fluorescence artifact activation	0.02% (inactive)
CC(=O)Nc1sc(/C(C#N)=C\c2cccc(Cl)c2)nc1-c1ccc(C)cc1	fluorescence artifact activation	16.5% (active)
Cc1ccc(NS(=O)(=O)c2ccc(C(=O)N3CCN(c4ncccn4)CC3)cc2)cc1	fluorescence artifact activation	0.15% (inactive)
O=C1NC(c2cccc([N+](=O)[O-])c2)Oc2ccccc21 (centres undefined)	fluorescence artifact activation	-0.04% (inactive)
O=C(O)c1cc(-c2ccc(/C=C3/SC(=S)N(Cc4ccccc4)C3=O)o2)ccc1Cl	fluorescence artifact activation	0.02% (inactive)
Cc1ccc(C(=O)Nc2ccc3c(c2)ncn3C)cc1	fluorescence artifact activation	2.41% (inactive)
CN1CCN(/N=C/c2ccc(OCc3ccccc3)cc2)CC1	fluorescence artifact activation	107% (active)

====

# Method Notes: IANBD-channel fluorescence artefacts in buffer – biochemical, artefact control for cardiac RTF calcium sensitizer project, confirmation (AID 504382)
# Experimental Conditions: IANBD fluorescence interference counterscreen, EC20 Ca2+, at 7.2 µM, stronger effect = higher value, scaled: EC20 calcium 0, EC100 calcium 100
Out of some 2,500 compounds screened, about 460 (18%) were called active. Not all results are given here.
Measured fluorescence artifact activation by item
Readout Kind: fluorescence artifact activation (%)

Molecule	Recorded Measurement
CC(=O)c1ccc(C(=O)Nc2sc3c(c2C(N)=O)CCN(Cc2ccccc2)C3)cc1	-0.06
CN(C)/C=C/C(=O)c1ccc(Br)s1	0.3
COc1ccc2[nH]c(C)c(CCN(Cc3cccs3)C(=S)Nc3ccc(F)cc3)c2c1	1.01
Cc1ccc(CNC(=O)c2ccc(S(=O)(=O)N3CCCCC3)cc2)cc1	-0.06
Cc1ccc(NC(=O)CN(C)c2ccc(S(=O)(=O)N3CCCC3)cn2)cc1	18.6
O=C(N/N=C/c1sc(N2CCOCC2)nc1-c1ccccc1)c1cccc(S(=O)(=O)N2CCCC2)c1	0
CCCCCCNC(=O)C(C#N)c1nc2ccccc2nc1N1CCCC1 (stereo not given)	0.17
COc1cc(/C=N/NC(=O)c2cc(-c3ccccc3Cl)nc3ccccc23)cc(OC)c1O	8.56
CC(C)CN1CCC(C(=O)N2CCN(c3ccccc3F)CC2)CC1	-0.02
CN(C)NC(=S)Nc1ccc(S(=O)(=O)N2CCCCC2)cc1	2.09

====

# Method Notes: IANBD-channel fluorescence artefacts in buffer – biochemical, artefact control for cardiac RTF calcium sensitizer project, confirmation (AID 504382)
# Experimental Conditions: IANBD fluorescence interference counterscreen, EC20 Ca2+, at 7.2 µM, stronger effect = higher value, scaled: EC20 calcium 0, EC100 calcium 100
About 460 (18%) of roughly 2,500 compounds were called active. These entries were drawn from the full list.

Compound	Unit Text	fluorescence artifact activation
C=CCOc1ccc(Br)cc1CNCC	%	6.82
Cc1nc(NC(=O)c2ccccc2[N+](=O)[O-])sc1C(=O)N(C)C	%	0.02
CCn1c(SCC(=O)c2ccc(Cl)cc2)nnc1C(C)C	%	2.06
N#Cc1ccc(S(=O)(=O)NC2CCN(Cc3ccccc3)CC2)cc1	%	2.37
COC(=O)Cn1cc(/C=C/c2cc[n+](C)cc2)c2ccccc21	%	1.9
O=C(C1=NN(c2ccccc2)C2C(=O)N(c3ccccc3)C(=O)C12)c1ccccc1 (centres undefined)	%	-0.1
COc1ccccc1N=Cc1c(C)c(C#N)c2[nH]c3ccccc3n2c1=O	%	-0.03
O=C(Oc1ccc2ccc(=O)oc2c1)c1cccs1	%	0.02
O=C1c2ccccc2-c2onc3ccc(N4CCCC4)c1c23	%	0.15
CN(C)c1ccc(/C=C2\CCC/C(=C\c3ccccc3)C2=O)cc1	%	0.02
CC(C)(C)c1ccc(C(=O)NC(=S)Nc2ccc(N3CCOCC3)cc2)cc1	%	0.09
Cc1ccc(C)c(C2=NNC(=O)CC2)c1	%	0.16
O=C(N1CCOCC1)N1CCC(n2nnc3ccccc32)CC1	%	0.06
COC(=O)Cc1ccc(NC(=S)NCCCN2CCOCC2)cc1	%	-0.02
CCCOc1ccc(C2C(C(=O)c3ccc(C)o3)=C(O)C(=O)N2CCCn2ccnc2)cc1 (centres undefined)	%	20.7
COCCN(CCOC)Cc1c(O)ccc2c1O/C(=C\c1ccco1)C2=O	%	0.11
COc1ccc(OC)c(NC(=S)Nc2ccccc2)c1	%	-0.01
COc1ccc(OC)c(NC(=O)CNC(=O)Cn2c(C)cc3ccccc3c2=O)c1	%	1380
COCc1cc(C)n(CC(=O)Nc2ccccc2C(=O)OC)c(=O)c1C#N	%	5.24
Cc1ccc(NC2OC(C(O)CO)C(O)C2O)cc1[N+](=O)[O-] (centres undefined)	%	5.79
Cn1cc(/C=C2\SC(=S)N(NC(=O)c3ccccc3Cl)C2=O)c2ccccc21	%	6.42
COc1cc(/C=C2\N=C3CCCCCN3C2=O)ccc1O	%	-0.06
O=C1NCCCCC1NS(=O)(=O)c1cccc(C(F)(F)F)c1 (centres undefined)	%	0.33
CCOc1ccc(NC(=S)c2ccncc2)cc1	%	0.07

The values you see were collected from PubChem BioAssay AID504382.
